measurement description: Hematology assays in cynomolgus monkeys (Example 45)
Format: in vivo
condition context: day 64; escalating dose regimen

substance | MCV [fL]
ISIS 416850: MOE gapmer, nucleobases 1275 to 1318 of SEQ ID NO: 1 (Table 8) (antisense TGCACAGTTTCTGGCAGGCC; MOE gapmer, wing and gap sizes not given here) | 79
ISIS 416838: MOE gapmer, nucleobases 1018 to 1042 of SEQ ID NO: 1 (Table 6) (antisense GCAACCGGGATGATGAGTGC; MOE gapmer, wing and gap sizes not given here) | 79
ISIS 416858: MOE gapmer, nucleobases 1275 to 1318 of SEQ ID NO: 1 (Table 8) (antisense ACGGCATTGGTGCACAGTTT; MOE gapmer, wing and gap sizes not given here) | 73
ISIS 417002: MOE gapmer, nucleobases 1275 to 1318 of SEQ ID NO: 1 (Table 8) (antisense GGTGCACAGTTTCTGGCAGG; MOE gapmer, wing and gap sizes not given here) | 76
ISIS 416864: MOE gapmer, nucleobases 1275 to 1318 of SEQ ID NO: 1 (Table 8) (antisense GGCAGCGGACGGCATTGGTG; MOE gapmer, wing and gap sizes not given here) | 75

* * *

In this section, each of the substances is paired with its reported percent inhibition of human Factor 11 mRNA relative to untreated control cells.
Tested on: human Factor 11 mRNA
measurement description: Dose-dependent inhibition of human Factor 11 in HepG2 cells, electroporation 625-20,000 nM (Example 5)
Assay type: cell-based
condition context: 1250 nM, ~16 hours
endpoint: percent inhibition of human Factor 11 mRNA relative to untreated control cells (%)

substance | readout value
417003 (antisense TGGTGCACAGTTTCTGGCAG; 2-13-5 gapmer chemistry, further chemistry not given here) [compound 417003] | 74
416858 (antisense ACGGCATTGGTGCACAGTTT; 5-10-5 gapmer, further chemistry not given here) [compound 416858] | 77
416892 (antisense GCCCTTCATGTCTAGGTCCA; 3-14-3 chimeric gapmer, further chemistry not given here) [compound 416892] | 86

* * *

measurement description: Hematology assays in cynomolgus monkeys (Example 45)
Type: in vivo
condition context: day 50
endpoint: lymphocytes (%)

substance | endpoint | readout value
ISIS 416850: MOE gapmer, nucleobases 1275 to 1318 of SEQ ID NO: 1 (Table 8) (antisense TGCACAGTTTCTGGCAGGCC; MOE gapmer, wing and gap sizes not given here) | lymphocytes | 49
ISIS 417002: MOE gapmer, nucleobases 1275 to 1318 of SEQ ID NO: 1 (Table 8) (antisense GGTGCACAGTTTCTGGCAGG; MOE gapmer, wing and gap sizes not given here) | lymphocytes | 34
ISIS 416838: MOE gapmer, nucleobases 1018 to 1042 of SEQ ID NO: 1 (Table 6) (antisense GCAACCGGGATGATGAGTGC; MOE gapmer, wing and gap sizes not given here) | lymphocytes | 64
ISIS 416858: MOE gapmer, nucleobases 1275 to 1318 of SEQ ID NO: 1 (Table 8) (antisense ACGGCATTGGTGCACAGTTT; MOE gapmer, wing and gap sizes not given here) | lymphocytes | 48
ISIS 416864: MOE gapmer, nucleobases 1275 to 1318 of SEQ ID NO: 1 (Table 8) (antisense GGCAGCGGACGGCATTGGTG; MOE gapmer, wing and gap sizes not given here) | lymphocytes | 46

* * *

Test system: Factor 11 activity
measurement description: Factor 11 protein activity, F11 assay based on clotting time (Example 45)
Type: in vivo, cynomolgus monkeys
condition context: day 29; escalating dose regimen
In this section, each of the substances is paired with its reported percent inhibition of Factor 11 activity, relative to PBS control.
endpoint: percent inhibition of Factor 11 activity, relative to PBS control (%)

substance | units label | readout value
ISIS 416850: MOE gapmer, nucleobases 1275 to 1318 of SEQ ID NO: 1 (Table 8) (antisense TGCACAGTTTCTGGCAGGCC; MOE gapmer, wing and gap sizes not given here) | % | 15
ISIS 416838: MOE gapmer, nucleobases 1018 to 1042 of SEQ ID NO: 1 (Table 6) (antisense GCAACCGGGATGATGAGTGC; MOE gapmer, wing and gap sizes not given here) | % | 8
ISIS 417002: MOE gapmer, nucleobases 1275 to 1318 of SEQ ID NO: 1 (Table 8) (antisense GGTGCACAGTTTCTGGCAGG; MOE gapmer, wing and gap sizes not given here) | % | 8
ISIS 416858: MOE gapmer, nucleobases 1275 to 1318 of SEQ ID NO: 1 (Table 8) (antisense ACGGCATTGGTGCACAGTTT; MOE gapmer, wing and gap sizes not given here) | % | 28
ISIS 416864: MOE gapmer, nucleobases 1275 to 1318 of SEQ ID NO: 1 (Table 8) (antisense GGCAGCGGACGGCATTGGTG; MOE gapmer, wing and gap sizes not given here) | % | 10

* * *

measurement description: Tolerability in CD1 mice: organ weight (Example 33)
Format: in vivo
condition context: 50 mg/kg s.c. twice a week, 4 weeks, vs PBS control, normalized to body weight

substance | Percent change in liver weight
416858 (antisense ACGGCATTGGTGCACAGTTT; 5-10-5 gapmer, further chemistry not given here) [compound 416858] | +1%
417003 (antisense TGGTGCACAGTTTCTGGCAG; 2-13-5 gapmer chemistry, further chemistry not given here) [compound 417003] | +42%
416892 (antisense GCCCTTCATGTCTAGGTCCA; 3-14-3 chimeric gapmer, further chemistry not given here) [compound 416892] | +88%

* * *

condition context: mouse, in vivo, sc, 50 mg/kg
e = 2'-O-(2-methoxyethyl) (MOE); d = 2'-deoxy (DNA)
endpoint: Platelets

substance | readout value
ISIS 416867: MOE gapmer, nucleobases 1275 to 1318 of SEQ ID NO: 1 (Table 8) (antisense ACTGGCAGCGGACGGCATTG; MOE gapmer, wing and gap sizes not given here) | 1006 10^3/μL
ISIS 416860: MOE gapmer, nucleobases 1275 to 1318 of SEQ ID NO: 1 (Table 8) (antisense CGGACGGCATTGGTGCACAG; MOE gapmer, wing and gap sizes not given here) | 937 10^3/μL
ISIS 413481: 5-10-5 MOE gapmer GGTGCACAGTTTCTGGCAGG (sugars from the 5' end e5 d10 e5, backbone and methylation of C not given here) | 841 10^3/μL
ISIS 416856: MOE gapmer, nucleobases 1275 to 1318 of SEQ ID NO: 1 (Table 8) (antisense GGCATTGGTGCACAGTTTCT; MOE gapmer, wing and gap sizes not given here) | 753 10^3/μL
ISIS 416850: MOE gapmer, nucleobases 1275 to 1318 of SEQ ID NO: 1 (Table 8) (antisense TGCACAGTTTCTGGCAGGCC; MOE gapmer, wing and gap sizes not given here) | 916 10^3/μL
ISIS 416852: MOE gapmer, nucleobases 1275 to 1318 of SEQ ID NO: 1 (Table 8) (antisense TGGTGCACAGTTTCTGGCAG; MOE gapmer, wing and gap sizes not given here) | 903 10^3/μL
ISIS 416865: MOE gapmer, nucleobases 1275 to 1318 of SEQ ID NO: 1 (Table 8) (antisense TGGCAGCGGACGGCATTGGT; MOE gapmer, wing and gap sizes not given here) | 872 10^3/μL
ISIS 416853: MOE gapmer, nucleobases 1275 to 1318 of SEQ ID NO: 1 (Table 8) (antisense TTGGTGCACAGTTTCTGGCA; MOE gapmer, wing and gap sizes not given here) | 801 10^3/μL
ISIS 416858: MOE gapmer, nucleobases 1275 to 1318 of SEQ ID NO: 1 (Table 8) (antisense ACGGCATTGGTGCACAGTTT; MOE gapmer, wing and gap sizes not given here) | 782 10^3/μL
ISIS 416851: MOE gapmer, nucleobases 1275 to 1318 of SEQ ID NO: 1 (Table 8) (antisense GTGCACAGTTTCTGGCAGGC; MOE gapmer, wing and gap sizes not given here) | 984 10^3/μL
ISIS 416854: MOE gapmer, nucleobases 1275 to 1318 of SEQ ID NO: 1 (Table 8) (antisense ATTGGTGCACAGTTTCTGGC; MOE gapmer, wing and gap sizes not given here) | 1060 10^3/μL

* * *

Test system: human Factor 11 mRNA
measurement description: Dose-dependent inhibition of human Factor 11 in HepG2 cells, electroporation 625-20,000 nM (Example 5)
Assay type: cell-based
condition context: 2500 nM, ~16 hours
endpoint: percent inhibition of human Factor 11 mRNA relative to untreated control cells (%)

substance | units label | readout value
416826 (antisense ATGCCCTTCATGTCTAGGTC; 5-10-5 gapmer, further chemistry not given here) [compound 416826] | % | 89
416892 (antisense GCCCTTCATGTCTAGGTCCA; 3-14-3 chimeric gapmer, further chemistry not given here) [compound 416892] | % | 96
416858 (antisense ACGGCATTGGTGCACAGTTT; 5-10-5 gapmer, further chemistry not given here) [compound 416858] | % | 87
417003 (antisense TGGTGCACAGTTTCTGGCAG; 2-13-5 gapmer chemistry, further chemistry not given here) [compound 417003] | % | 86
416838 (antisense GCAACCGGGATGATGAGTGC; 5-10-5 gapmer, further chemistry not given here) [compound 416838] | % | 87
416925 (antisense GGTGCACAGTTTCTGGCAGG; 3-14-3 gapmer chemistry, further chemistry not given here) [compound 416925] | % | 88
416999 (antisense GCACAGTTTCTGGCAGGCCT; 2-13-5 gapmer chemistry, further chemistry not given here) [compound 416999] | % | 89
416850 (antisense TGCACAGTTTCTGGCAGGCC; 5-10-5 gapmer, further chemistry not given here) [compound 416850] | % | 87
416864 (antisense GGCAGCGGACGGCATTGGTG; 5-10-5 gapmer, further chemistry not given here) [compound 416864] | % | 84
417002 (antisense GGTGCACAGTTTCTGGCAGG; 2-13-5 gapmer chemistry, further chemistry not given here) [compound 417002] | % | 86
416825 (antisense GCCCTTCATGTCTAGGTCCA; 5-10-5 gapmer, further chemistry not given here) [compound 416825] | % | 91
